From: PubChem BioAssay AID1355

test system: SW-1 melanoma, thapsigargin-induced death, ATPlite luminescence, 24 h; test: protection from thapsigargin-induced SW-1 death, SAR follow-up, cell-based, SW-1 melanoma, ATP content luminescence (AID 1355); settings: measured here: thapsigargin 7.5 uM; at 25 µM; stronger effect = higher value
Measurement Label: survival (%)
Expressed in %, but write only the number.

As a guide, the following entries are already answered.
* COc1ccc(C2CC(=O)C3=C(C2)Nc2ccccc2NC3c2ccccc2C(F)(F)F)cc1OC (stereo unspecified) | 89
* CC1(C)CC(=O)C2=C(C1)Nc1ccccc1NC2c1ccc(-c2ccccc2)cc1 (stereo unspecified) | 69

*Q* Input COc1ccc(C2CC(=O)C3=C(C2)Nc2ccccc2NC3c2cc(C)ccc2C)cc1 (stereo unspecified) , output reported survival.
*A* 72

*Q* Input CCOc1cc(C2Nc3ccccc3NC3=C2C(=O)CC(c2ccc(OC)cc2)C3)cc(Cl)c1O (stereo unspecified) , output reported survival.
*A* 71

*Q* Input COc1ccc(C2CC(=O)C3=C(C2)Nc2ccccc2NC3c2cccc(C(F)(F)F)c2)cc1OC (stereo unspecified) , output reported survival.
*A* 75

*Q* Input CSc1ccc(C2Nc3ccccc3NC3=C2C(=O)CC(c2ccccc2)C3)cc1 (stereo unspecified) , output reported survival.
*A* 72

*Q* Input COc1ccc(C2CC(=O)C3=C(C2)Nc2ccccc2NC3c2cccc(Br)c2)cc1OC (stereo unspecified) , output reported survival.
*A* 72

*Q* Input O=C1CC(c2ccccc2)CC2=C1C(c1c(F)cccc1Cl)Nc1ccccc1N2 (stereo unspecified) , output reported survival.
*A* 72

*Q* Input CCCOc1ccc(C2Nc3ccccc3NC3=C2C(=O)CC(c2ccc(OC)c(OC)c2)C3)cc1 (stereo unspecified) , output reported survival.
*A* 71

*Q* Input CCOc1cccc(C2Nc3ccccc3NC3=C2C(=O)CC(c2ccc(OC)cc2)C3)c1 (stereo unspecified) , output reported survival.
*A* 75

*Q* Input COc1ccc(C2CC(=O)C3=C(C2)Nc2ccccc2NC3c2cccc(Oc3ccccc3)c2)cc1OC (stereo unspecified) , output reported survival.
*A* 77
